Measured folding stability dG unfold by item
measurement.description: folding stability dG unfold from trypsin proteolysis; higher = more stable

# construct.sequence, readout.unit, folding stability dG unfold
measured = [
    ("SAGGSAGGGKMEYDPKDGTMRWRDPANGIEHESRIEIPPIVIPADDLPKLREQFPPDMPVVLAGSAGGSAGG [r6_104_TrROS]", "kcal/mol", 0.238),
    ("SAGGSAGGSMWIVRIEYENPDNGKTYTIPIFVPPEDAEEIAKEIAEQLPGIKDIKVEIYPLNDSAGGSAGGS [r12_757_TrROS]", "kcal/mol", 1.52),
    ("SAGGSAGGSMKYYKTKDGKIVKAPPIETVKLKLKLEINGKKIEIEIEMSKEEIDKLLKELEKKSAGGSAGGS [r20_148_TrROS_Hall]", "kcal/mol", 0.717),
    ("SMTITIERPVPPELTDRPLSLELPLPNGSTVSVKVETSPTTATVTITTNDPSLEAEVKARVEELLARLLASA [r9_790_JUSTAS]", "kcal/mol", 2.56),
    ("SAGGSAGGEDKYLVVEFTVPEGKAEEFIAEVKKKIPPNWKIERVEIVEKTEDGLYRVRVVLKPGSAGGSAGG [r6_340_TrMRF]", "kcal/mol", 4.5),
    ("SAGGMIVEEETKPTPPLPDGTLVTESKVTIYINGKKITTTVKTTTLPDGTKVVETTLKGKKLKIILESAGGS [r16_448_JUSTAS]", "kcal/mol", 2.26),
    ("SAGGEEELRKAAEIAAAPPLEIEPVLETFTVETEEGPRVVLVISPVVRFPGDGVLIPNPVLVIPAEELSAGG [r19_11_TrMRF]", "kcal/mol", 0.861),
]

====

Measured folding stability dG unfold by item
measurement.description: folding stability dG unfold (combined trypsin and chymotrypsin); higher = more stable

# construct.sequence, censor.symbol, folding stability dG unfold (kcal/mol)
records = [
    ("SAGGMTLVLRFPSKEEALEALRELAEALGLEVEITKIEIEEREVEDPETGEKRREVLITIEVKVKPPSAGGS [r16_587_TrROS_Hall]", "=", 4.48),
    ("SAGGSAGGSAMITIKVSPDVPVPSNTPITLPNGKKVKATVTPVPSPEDGTPVLKITLDPNLISAGGSAGGSA [r18_476_JUSTAS]", "=", 0.446),
    ("SAGGPVVTTTTEYDPSTGKTYTVTTVPGSATQTTTYTLPDGTVLTTTTTVSPTTGGVTSTTPTTTPVPASAG [r5_587_JUSTAS]", "=", 1.39),
    ("SAAFKGKNGKTIKITAKVKPNELTPEQVKELALAAVKNIFPENEKVEVKVKVEKLPNGEVLVYVEVKAESAG [r14_389_TrMRF]", "=", 0.905),
    ("SAGGARFEFTTPEGDRVTVELETTADELRVRVTVHRENEPFTLEATFPLPPPAPPAVPADVPGPSLLLSAGG [r13_691_TrMRF]", "=", 1.91),
    ("SAGGSAGGSAGTEIKIPPEFPDLPVKVYPIEVTLLGKGKPKKVILNVATTPDAIIAVDPESAGGSAGGSAGG [r11_21_TrMRF]", "=", -0.623),
    ("SAGGMMEVEEREVEIELELEPGQSIEEALRELLGLEEGDEIVDVEVEVDPETRKVKIRVVILRPPEEESAGG [r13_828_TrROS_Hall]", "=", 3.68),
    ("SAGGSAGGSSMTITVTDLVTGEPGEIPEELKAELAAEAEESGSAVTFEITTPDGKKYRAEITPSAGGSAGGS [r12_41_JUSTAS]", "=", 1.1),
    ("SAGGSAGGSAGGMTTKYVITVEVPGENRTETIYLDVPPSRPEEAEALAKEISPNAKIERLSAGGSAGGSAGG [r11_250_JUSTAS]", "=", -0.144),
    ("TWTFTIMIPIKPEIREALDSGKPLPIEELVDWIKDEIARMFGFKDVTVKGIEIHPDPNGEIMVMVTIEFKPS [r1_290_TrROS]", "=", 4.62),
    ("SAGMPGKIRVEVEAEISEDNVIKLKIKIYGPDGELIDEIEAEIYLPVPPLSPSEGGGLIEAGNPELAEGSAG [r5_944_TrMRF]", "=", 3.13),
    ("SAGGSAGGSADWQKLEYPFPPGMPLDNIKEELRDLFPGKKPTIEIDKIEPHNGQYWIKITVKSAGGSAGGSA [r18_360_TrROS]", "=", 0.291),
    ("SGKVVATVPLPDGTVITVEVSPDNTVRVTVVRYRLVPNSTAPAVEVRTYTFPLPPGNPPSIQDVLDRVLSSA [r9_614_TrMRF]", "=", 4.41),
    ("SAGGSAGGSIKVPKNSKVTVLYEKGGKKIEVSGIVDPKTGKILETDSLENLPDAKIVEIKVEDSAGGSAGGS [r12_6_TrMRF]", "<", -1),
]
